Data provenance: ChEMBL document CHEMBL3352014

# tgt: Transient receptor potential cation channel subfamily A member 1 (Rattus norvegicus, UniProt Q6RI86)
# Sequence (Q6RI86 whole entry): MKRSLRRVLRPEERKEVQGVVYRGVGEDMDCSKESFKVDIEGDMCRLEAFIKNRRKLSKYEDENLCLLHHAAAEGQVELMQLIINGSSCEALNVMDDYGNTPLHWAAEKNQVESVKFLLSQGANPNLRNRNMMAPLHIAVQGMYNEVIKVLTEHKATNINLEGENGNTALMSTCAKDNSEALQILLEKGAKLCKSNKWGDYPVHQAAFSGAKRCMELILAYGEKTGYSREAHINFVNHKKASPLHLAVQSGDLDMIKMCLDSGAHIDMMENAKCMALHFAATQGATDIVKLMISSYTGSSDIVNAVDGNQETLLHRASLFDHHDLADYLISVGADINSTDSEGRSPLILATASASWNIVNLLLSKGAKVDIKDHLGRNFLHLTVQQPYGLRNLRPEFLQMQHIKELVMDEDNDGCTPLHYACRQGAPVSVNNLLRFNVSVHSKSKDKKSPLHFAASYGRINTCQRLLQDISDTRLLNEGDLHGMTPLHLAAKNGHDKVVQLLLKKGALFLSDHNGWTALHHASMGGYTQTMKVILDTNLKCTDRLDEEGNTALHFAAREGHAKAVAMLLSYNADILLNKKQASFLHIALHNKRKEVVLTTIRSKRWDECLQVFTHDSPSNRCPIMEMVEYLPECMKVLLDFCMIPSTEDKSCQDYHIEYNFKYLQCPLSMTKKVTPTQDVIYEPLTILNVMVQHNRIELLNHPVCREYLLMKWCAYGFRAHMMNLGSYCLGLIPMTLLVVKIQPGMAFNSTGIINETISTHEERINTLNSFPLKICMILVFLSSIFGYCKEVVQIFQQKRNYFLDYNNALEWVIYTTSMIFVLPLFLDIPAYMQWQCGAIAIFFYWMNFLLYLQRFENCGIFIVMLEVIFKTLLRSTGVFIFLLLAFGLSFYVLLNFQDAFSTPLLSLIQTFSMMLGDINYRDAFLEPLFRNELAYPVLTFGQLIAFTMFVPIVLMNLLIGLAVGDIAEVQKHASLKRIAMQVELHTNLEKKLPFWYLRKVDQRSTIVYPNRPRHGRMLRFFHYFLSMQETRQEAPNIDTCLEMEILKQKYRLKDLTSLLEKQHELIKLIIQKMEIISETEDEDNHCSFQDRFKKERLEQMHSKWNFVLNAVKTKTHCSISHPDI
# assay-details: Antagonist activity against rat TRPA1 expressed in HEK293 cells assessed as inhibition of AITC-induced increase in intracellular Ca2+ concentration by Fluo-4-AM dye based spectrofluorimetry
endpoint: IC50 (nM)

Some solved entries appear below for comparison.
[
  {
    "compound": "CC(C)=CCCC(C)CCOC(=O)CCc1ccccc1 (stereo unspecified)",
    "IC50 / nM": 340
  },
  {
    "compound": "CC(C)=CCC/C(C)=C\\COC(=O)Cc1ccc2ccccc2c1",
    "IC50 / nM": 180
  },
  {
    "compound": "CC(C)=CCC/C(C)=C/COC(=O)c1ccc(C)cc1",
    "IC50 / nM": 1000
  }
]

I. CC(C)=CCC/C(C)=C\CNC(=O)Oc1ccc(C(C)(C)C)cc1
II. CC(C)=CCC/C(C)=C\CNC(=O)CCc1ccccc1
Qu. Sorting by IC50 in descending order, would I or II appear first? // respond with label for picked entry
Ans. II

* * *

# tgt: Transient receptor potential cation channel subfamily M member 8 (Rattus norvegicus)
# Sequence (Q8R455 whole entry): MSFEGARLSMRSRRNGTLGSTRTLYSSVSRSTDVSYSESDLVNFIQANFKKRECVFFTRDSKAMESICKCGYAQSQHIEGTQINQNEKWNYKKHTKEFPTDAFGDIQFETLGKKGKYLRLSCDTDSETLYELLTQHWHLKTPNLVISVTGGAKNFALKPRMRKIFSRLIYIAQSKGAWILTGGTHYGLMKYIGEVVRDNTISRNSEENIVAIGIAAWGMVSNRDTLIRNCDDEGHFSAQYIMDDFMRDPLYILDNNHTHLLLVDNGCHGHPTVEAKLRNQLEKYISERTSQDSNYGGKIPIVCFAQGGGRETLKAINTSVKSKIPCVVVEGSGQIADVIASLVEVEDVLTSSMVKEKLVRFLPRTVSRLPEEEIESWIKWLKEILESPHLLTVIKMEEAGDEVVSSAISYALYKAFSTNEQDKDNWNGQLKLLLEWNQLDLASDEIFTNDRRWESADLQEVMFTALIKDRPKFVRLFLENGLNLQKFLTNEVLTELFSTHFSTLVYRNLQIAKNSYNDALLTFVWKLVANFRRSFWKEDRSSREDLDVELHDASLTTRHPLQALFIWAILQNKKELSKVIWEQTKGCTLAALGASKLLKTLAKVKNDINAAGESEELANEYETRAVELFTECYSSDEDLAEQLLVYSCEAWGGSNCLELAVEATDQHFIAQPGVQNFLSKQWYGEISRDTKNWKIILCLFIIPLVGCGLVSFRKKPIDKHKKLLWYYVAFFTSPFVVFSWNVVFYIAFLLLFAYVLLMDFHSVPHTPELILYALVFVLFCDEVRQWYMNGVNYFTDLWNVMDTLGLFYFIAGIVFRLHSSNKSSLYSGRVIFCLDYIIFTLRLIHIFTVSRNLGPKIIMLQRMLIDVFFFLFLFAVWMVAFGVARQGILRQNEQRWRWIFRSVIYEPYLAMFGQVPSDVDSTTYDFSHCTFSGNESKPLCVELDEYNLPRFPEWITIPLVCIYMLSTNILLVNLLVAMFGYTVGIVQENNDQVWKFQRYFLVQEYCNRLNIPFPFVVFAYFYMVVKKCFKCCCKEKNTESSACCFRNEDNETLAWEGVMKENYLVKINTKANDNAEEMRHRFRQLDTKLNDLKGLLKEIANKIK
# assay-details: Antagonist activity against rat TRPM8 expressed in HEK293 cells assessed as inhibition of icilin-induced increase in intracellular Ca2+ concentration by Fluo-4-AM dye based spectrofluorimetry
endpoint: IC50

Some solved entries appear below for comparison.
[
  {
    "molecule": "CC(C)=CCC/C(C)=C\\CNC(=O)Oc1ccc(C(C)(C)C)cc1",
    "obs-value": "> 100 µM"
  },
  {
    "molecule": "CC(=O)OC/C=C(\\C)CCC=C(C)C [GERANYL ACETATE]",
    "obs-value": "> 100 µM"
  },
  {
    "molecule": "CC(C)=CCC/C(C)=C/CNC(=O)Nc1ccc(C(C)(C)C)cc1",
    "obs-value": "> 100 µM"
  },
  {
    "molecule": "CC(C)=CCC/C(C)=C\\CNC(=O)Nc1cccc(Cl)c1",
    "obs-value": "0.71 µM"
  },
  {
    "molecule": "CC(C)=CCC/C(C)=C\\COC(=O)CCc1ccccc1",
    "obs-value": "0.29 µM"
  }
]

Qu. Checklist item: IC50 tested on Transient receptor potential cation channel subfamily M member 8 (Rattus norvegicus), entry CC(=O)OCCC(C)CCC=C(C)C (stereo not given) [CITRONELLYL ACETATE] , value?
Ans. > 100 µM

Qu. Repeat with `COc1ccc(CC(=O)OC/C=C(/C)CCC=C(C)C)cc1`
Ans. 9.7 µM

Qu. Repeat with `CC(C)=CCC/C(C)=C\COC(=O)c1cccc(C)c1`
Ans. 30.8 µM

Qu. Repeat with `CC(C)=CCC/C(C)=C/COC(=O)Cc1ccc(Cl)cc1`
Ans. > 100 µM

Qu. Repeat with `CC(C)=CCC/C(C)=C/CNC(=O)Cc1ccc(Cl)cc1`
Ans. 3.8 µM

Qu. Repeat with `CC(C)=CCC/C(C)=C/COC(=O)Cc1ccc(C)cc1`
Ans. 5.8 µM

Qu. Repeat with CC(C)=CCCC(C)CCO (racemic)
Ans. > 100 µM

Qu. Repeat with `COc1ccc(CC(=O)OC/C=C(\C)CCC=C(C)C)cc1`
Ans. > 100 µM

Qu. Repeat with `CC(C)=CCC/C(C)=C\COC(=O)c1ccc(C#N)cc1`
Ans. > 100 µM

* * *

# tgt: UniProt Q8NER1
# assay-details: Antagonist activity against human TRPV1 expressed in HEK293 cells assessed as inhibition of capsaicin-induced increase in intracellular Ca2+ concentration by Fluo-4-AM dye based spectrofluorimetry
pIC50: −log10 of the molar value.
endpoint: pIC50

Some solved entries appear below for comparison.
[
  {
    "compound": "CC(C)=CCCC(C)CCOC(=O)c1ccc(C)cc1 (stereo unspecified)",
    "tgt": "UniProt Q8NER1",
    "obs-value": "< 4.00"
  },
  {
    "compound": "CC(C)=CCC/C(C)=C/CNC(=O)NC1CCCCC1",
    "tgt": "UniProt Q8NER1",
    "obs-value": 5.00
  },
  {
    "compound": "CC(C)=CCC/C(C)=C\\COC(=O)Cc1cccc(I)c1",
    "tgt": "UniProt Q8NER1",
    "obs-value": "< 4.00"
  },
  {
    "compound": "CC(C)=CCC/C(C)=C\\COC(=O)Cc1ccc2ccccc2c1",
    "tgt": "UniProt Q8NER1",
    "obs-value": "< 4.00"
  },
  {
    "compound": "CC(=O)OC/C=C(\\C)CCC=C(C)C [GERANYL ACETATE]",
    "tgt": "UniProt Q8NER1",
    "obs-value": "< 4.00"
  }
]

Alright, here's another compound for you.
Qu. # query: pIC50 of entry `COc1ccc(CC(=O)OC/C=C(/C)CCC=C(C)C)cc1`
Ans. < 4.00

* * *

# tgt: Transient receptor potential cation channel subfamily V member 1 (Homo sapiens)
# Sequence (Q8NER1 whole entry): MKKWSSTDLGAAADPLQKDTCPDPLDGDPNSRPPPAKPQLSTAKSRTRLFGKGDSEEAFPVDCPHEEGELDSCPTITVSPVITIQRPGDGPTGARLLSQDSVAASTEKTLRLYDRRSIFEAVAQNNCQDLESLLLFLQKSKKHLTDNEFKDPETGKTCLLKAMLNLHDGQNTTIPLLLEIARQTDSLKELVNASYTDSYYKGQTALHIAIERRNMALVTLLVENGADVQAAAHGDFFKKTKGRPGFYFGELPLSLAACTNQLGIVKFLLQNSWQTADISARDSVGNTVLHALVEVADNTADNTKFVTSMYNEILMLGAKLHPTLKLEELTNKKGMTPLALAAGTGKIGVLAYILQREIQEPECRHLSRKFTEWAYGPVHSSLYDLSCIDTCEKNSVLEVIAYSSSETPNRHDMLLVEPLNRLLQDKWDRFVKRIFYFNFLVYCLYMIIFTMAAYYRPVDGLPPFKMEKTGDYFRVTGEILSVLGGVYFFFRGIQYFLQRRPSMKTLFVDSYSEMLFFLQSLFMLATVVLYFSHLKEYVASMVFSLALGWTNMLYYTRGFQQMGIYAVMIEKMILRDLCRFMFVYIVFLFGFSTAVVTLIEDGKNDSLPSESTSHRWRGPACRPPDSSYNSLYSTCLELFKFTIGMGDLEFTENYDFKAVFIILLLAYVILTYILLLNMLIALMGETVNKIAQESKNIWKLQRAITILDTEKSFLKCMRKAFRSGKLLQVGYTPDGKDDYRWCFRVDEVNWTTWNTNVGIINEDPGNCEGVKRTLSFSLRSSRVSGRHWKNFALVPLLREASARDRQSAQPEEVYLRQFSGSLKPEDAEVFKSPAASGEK
# assay-details: Agonist activity at human TRPV1 expressed in HEK293 cells assessed as increase in intracellular Ca2+ concentration by Fluo-4-AM dye based spectrofluorimetry
# Assay type: cell-based
pEC50: −log10 of the molar value.
endpoint: pEC50

[
  {
    "chem-smiles": "CC(C)=CCC/C(C)=C\\CNC(=O)Cc1ccc(Cl)cc1",
    "pEC50": 6.37
  }
]

P. CC(C)=CCC/C(C)=C/CNC(=O)NC1CCCCC1
Q. CC(C)=CCC/C(C)=C/CNC(=O)CCc1ccccc1
Qu. Of the pair P and Q , name the member with the lesser recorded pEC50. // respond with label for picked entry
Ans. Q
(Q: 4.79, P: 5.32)

1. CC(C)=CCC/C(C)=C\CNC(=O)Oc1ccc(C(C)(C)C)cc1
2. CC(C)=CCC/C(C)=C/CNC(=O)Oc1ccc(C(C)(C)C)cc1
Qu. Of the pair 1 and 2 , name the member with the lesser recorded pEC50. // respond with label for picked entry
Ans. 2

P. CC(C)=CCC/C(C)=C\COC(=O)Nc1ccc(C(C)(C)C)cc1
Q. CC(C)=CCC/C(C)=C/CNC(=O)Nc1cccc(Cl)c1
Qu. Sorting by pEC50 in descending order, would P or Q appear first? // respond with label for picked entry
Ans. Q

* * *

# tgt: Transient receptor potential cation channel subfamily A member 1 (Rattus norvegicus, UniProt Q6RI86)
# assay-details: Agonist activity at rat TRPA1 expressed in HEK293 cells assessed as increase in intracellular Ca2+ concentration by Fluo-4-AM dye based spectrofluorimetry
pEC50: −log10 of the molar value.
endpoint: pEC50

Some solved entries appear below for comparison.
[
  {
    "compound": "CC(C)=CCC/C(C)=C/COC(=O)CCc1ccccc1",
    "pEC50": 6.41
  },
  {
    "compound": "CC(C)=CCC/C(C)=C/CNC(=O)NC1CCCCC1",
    "pEC50": 5.31
  },
  {
    "compound": "CC(C)=CCC/C(C)=C\\CNC(=O)Oc1ccc(C(C)(C)C)cc1",
    "pEC50": 7.74
  }
]

P. CC(C)=CCC/C(C)=C/COC(=O)Cc1ccc(Cl)cc1
Q. COc1ccc(CC(=O)OC/C=C(\C)CCC=C(C)C)cc1
R. CC(C)=CCC/C(C)=C\CNC(=O)NC1CCCCC1
S. CC(C)=CCCC(C)CCOC(=O)c1ccc(C)cc1 (stereo not drawn)
T. CC(C)=CCC/C(C)=C\COC(=O)Cc1ccc(Cl)cc1
Qu. Rank entries according to their pEC50, from the largest number down. # output: labels, in the requested order
Ans. T, P, S, Q, R
(T: 7.80, P: 6.92, S: 6.55, Q: 6.29, R: 5.58)

1. CC(C)=CCC/C(C)=C\COC(=O)Cc1ccc2ccccc2c1
2. CC(C)=CCCC(C)CCOC(=O)CCc1ccccc1 (stereo not drawn)
3. CC(C)=CCC/C(C)=C/COC(=O)c1ccc(C#N)cc1
4. CC(C)=CCC/C(C)=C\COC(=O)Nc1ccc(C(C)(C)C)cc1
Qu. Rank entries according to their pEC50, from the largest number down. # output: labels, in the requested order
Ans. 4, 1, 2, 3
(4: 7.39, 1: 7.09, 2: 6.80, 3: 6.32)

a. CC(C)=CCC/C(C)=C/CNC(=O)Nc1ccc(C(C)(C)C)cc1
b. CC(C)=CCC/C(C)=C\CNC(=O)Cc1ccc(Cl)cc1
c. CC(C)=CCC/C(C)=C/COC(=O)c1ccc(C)cc1
Qu. Put these in order: smallest pEC50 first, largest last. # output: labels, in the requested order
Ans. b, c, a
(b: 6.00, c: 6.48, a: 7.04)

I. CC(C)=CCC/C(C)=C\COC(=O)Cc1cccc(I)c1
II. CC(C)=CCC/C(C)=C/COC(=O)c1cccc(C)c1
Qu. Of the pair I and II , name the member with the lesser recorded pEC50. // respond with label for picked entry
Ans. II
